Each recorded value in this set is attributed to PubChem BioAssay AID1963982.

Tested on: 313798-341-R-J2-PDC spheroids, viability
measurementDescription: Anticancer human tumor 313798-341-R-J2-PDC patient-derived cervical squamous cell carcinoma cell line growth inhibition [PI3K]
appliedConditions: second compound 0.1 µM; first compound 0.1 µM; active compounds read low; spheroids with HUVEC and MSC
measuredEndpoint: viability, T/C (%)

- compound: "Cn1ncc(Cl)c1-c1cc(C(=O)NC(CN)Cc2cccc(F)c2)sc1Cl (stereo not drawn) + CC(Nc1ncnc2nc[nH]c12)c1cc2cccc(Cl)c2c(=O)n1-c1ccccc1"
  measuredEndpoint: "viability, T/C"
  unitSpec: "%"
  measured: 89.5
- compound: "C#Cc1c(F)ccc2cc(O)cc(-c3ncc4c(N5CC6CCC(C5)N6)nc(OCC56CCCN5CC(F)C6)nc4c3F)c12 (stereo not drawn) + Cc1nc(NC(=O)N2CCCC2C(N)=O)sc1-c1ccnc(C(C)(C)C(F)(F)F)c1"
  measuredEndpoint: "viability, T/C"
  unitSpec: "%"
  measured: 106
- compound: "CC1(C)CCC(CN2CCN(c3ccc(C(=O)NS(=O)(=O)c4ccc(NCC5CCOCC5)c([N+](=O)[O-])c4)c(Oc4cnc5[nH]ccc5c4)c3)CC2)=C(c2ccc(Cl)cc2)C1 + Cc1nc(NC(=O)N2CCCC2C(N)=O)sc1-c1ccnc(C(C)(C)C(F)(F)F)c1"
  measuredEndpoint: "viability, T/C"
  unitSpec: "%"
  measured: 101
- compound: "CC(C)NCC(C(=O)N1CCN(c2ncnc3c2C(C)CC3O)CC1)c1ccc(Cl)cc1 (stereo not drawn) + CC(Nc1ccc2c(c1)OCCn1cc(N3C(=O)OCC3C(F)F)nc1-2)C(N)=O"
  measuredEndpoint: "viability, T/C"
  unitSpec: "%"
  measured: 99.6
- compound: "CC(=O)c1c(C)c2cnc(Nc3ccc(N4CCNCC4)cn3)nc2n(C2CCCC2)c1=O + CC(Nc1ncnc2nc[nH]c12)c1cc2cccc(Cl)c2c(=O)n1-c1ccccc1"
  measuredEndpoint: "viability, T/C"
  unitSpec: "%"
  measured: 97.4
- compound: "CC1(C)CCC(Nc2ncc(C(F)(F)F)c(-c3c[nH]c4c(P(C)(C)=O)c(C#N)ccc34)n2)CN1 (stereo not drawn) + CC(Nc1ccc2c(c1)OCCn1cc(N3C(=O)OCC3C(F)F)nc1-2)C(N)=O"
  measuredEndpoint: "viability, T/C"
  unitSpec: "%"
  measured: 31.6
- compound: "C#Cc1c(F)ccc2cc(O)cc(-c3ncc4c(N5CC6CCC(C5)N6)nc(OCC56CCCN5CC(F)C6)nc4c3F)c12 (stereo not drawn) + CC(Nc1ccc2c(c1)OCCn1cc(N3C(=O)OCC3C(F)F)nc1-2)C(N)=O"
  measuredEndpoint: "viability, T/C"
  unitSpec: "%"
  measured: 94.5
- compound: "C[C@@H](NC(=O)c1ncnc(N)c1Cl)c1ncc(C(=O)Nc2cc(C(F)(F)F)c(Cl)cn2)s1 + Cc1nc(NC(=O)N2CCCC2C(N)=O)sc1-c1ccnc(C(C)(C)C(F)(F)F)c1"
  measuredEndpoint: "viability, T/C"
  unitSpec: "%"
  measured: 112

----------
Test system: 313798-341-R-J2-PDC spheroids, viability
measurementDescription: Anticancer human tumor 313798-341-R-J2-PDC cell line growth inhibition [PI3K];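 note: spheroids exposed to compounds for seven days; 100% = DMSO vehicle control viability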
appliedConditions: second compound 0.1 µM; first compound 3.16 µM; active compounds read low; spheroids with HUVEC and MSC
measuredEndpoint: viability, T/C (%)

- molecule: "Cn1nccc1Nc1nccc(-c2ccn(C(CO)c3ccc(Cl)c(F)c3)c(=O)c2)n1 (configuration not stated) + Cc1nc(NC(=O)N2CCCC2C(N)=O)sc1-c1ccnc(C(C)(C)C(F)(F)F)c1"
  measuredEndpoint: "viability, T/C"
  unitSpec: "%"
  measured: 113
- molecule: "Cn1ncc(Cl)c1-c1cc(C(=O)NC(CN)Cc2cccc(F)c2)sc1Cl (configuration not stated) + CC(Nc1ccc2c(c1)OCCn1cc(N3C(=O)OCC3C(F)F)nc1-2)C(N)=O"
  measuredEndpoint: "viability, T/C"
  unitSpec: "%"
  measured: 35.2
- molecule: "CC1(C)CCC(Nc2ncc(C(F)(F)F)c(-c3c[nH]c4c(P(C)(C)=O)c(C#N)ccc34)n2)CN1 (configuration not stated) + Cc1nc(NC(=O)N2CCCC2C(N)=O)sc1-c1ccnc(C(C)(C)C(F)(F)F)c1"
  measuredEndpoint: "viability, T/C"
  unitSpec: "%"
  measured: 54.1
- molecule: "C[C@@H](NC(=O)c1ncnc(N)c1Cl)c1ncc(C(=O)Nc2cc(C(F)(F)F)c(Cl)cn2)s1 + Cc1nc(NC(=O)N2CCCC2C(N)=O)sc1-c1ccnc(C(C)(C)C(F)(F)F)c1"
  measuredEndpoint: "viability, T/C"
  unitSpec: "%"
  measured: 115
- molecule: "C#Cc1c(F)ccc2cc(O)cc(-c3ncc4c(N5CC6CCC(C5)N6)nc(OCC56CCCN5CC(F)C6)nc4c3F)c12 (configuration not stated) + CC(Nc1ccc2c(c1)OCCn1cc(N3C(=O)OCC3C(F)F)nc1-2)C(N)=O"
  measuredEndpoint: "viability, T/C"
  unitSpec: "%"
  measured: 102
- molecule: "CNC(=O)c1ccc(N2C(=S)N(c3ccc(C#N)c(C(F)(F)F)c3)C(=O)C2(C)C)cc1F + CC(Nc1ncnc2nc[nH]c12)c1cc2cccc(Cl)c2c(=O)n1-c1ccccc1"
  measuredEndpoint: "viability, T/C"
  unitSpec: "%"
  measured: 106
- molecule: "CNC(=O)c1ccc(N2C(=S)N(c3ccc(C#N)c(C(F)(F)F)c3)C(=O)C2(C)C)cc1F + Cc1nc(NC(=O)N2CCCC2C(N)=O)sc1-c1ccnc(C(C)(C)C(F)(F)F)c1"
  measuredEndpoint: "viability, T/C"
  unitSpec: "%"
  measured: 111

----------
System: 313798-341-R-J2-PDC spheroids, viability
measurementDescription: Anticancer human tumor 313798-341-R-J2-PDC cell line growth inhibition [PI3K];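 note: spheroids exposed to compounds for seven days; 100% = DMSO vehicle control viability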
appliedConditions: second compound 0.316 µM; first compound 0.000316 µM; active compounds read low; spheroids with HUVEC and MSC
viability, T/C listing for selected compounds.

- compound: "CC(C)n1nc(-c2ccc3oc(N)nc3c2)c2c(N)ncnc21 + CC(Nc1ccc2c(c1)OCCn1cc(N3C(=O)OCC3C(F)F)nc1-2)C(N)=O"
  testTarget: "313798-341-R-J2-PDC spheroids, viability"
  viability, T/C [%]: 83.4
- compound: "Cn1ncnc1[C@H]1c2n[nH]c(=O)c3cc(F)cc(c23)N[C@@H]1c1ccc(F)cc1 + CC(Nc1ccc2c(c1)OCCn1cc(N3C(=O)OCC3C(F)F)nc1-2)C(N)=O"
  testTarget: "313798-341-R-J2-PDC spheroids, viability"
  viability, T/C [%]: 77.2
- compound: "CC(C)n1nc(-c2ccc3oc(N)nc3c2)c2c(N)ncnc21 + Cc1nc(NC(=O)N2CCCC2C(N)=O)sc1-c1ccnc(C(C)(C)C(F)(F)F)c1"
  testTarget: "313798-341-R-J2-PDC spheroids, viability"
  viability, T/C [%]: 98.6

----------
The compounds listed here are annotated with their viability, T/C.
Test system: 313798-341-R-J2-PDC spheroids, viability
measurementDescription: Anticancer human tumor 313798-341-R-J2-PDC cell line growth inhibition [PI3K];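 note: spheroids exposed to compounds for seven days; 100% = DMSO vehicle control viability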
appliedConditions: second compound 0.1 µM; first compound 10 µM; active compounds read low; spheroids with HUVEC and MSC
measuredEndpoint: viability, T/C (%)

- compound: "C=CC(=O)N1CCN(c2nc(=O)n(-c3c(C)ccnc3C(C)C)c3nc(-c4c(O)cccc4F)c(F)cc23)C(C)C1 (stereo unspecified) + CC(Nc1ncnc2nc[nH]c12)c1cc2cccc(Cl)c2c(=O)n1-c1ccccc1"
  measuredEndpoint: "viability, T/C"
  measured: 102
- compound: "CC1(C)CCC(CN2CCN(c3ccc(C(=O)NS(=O)(=O)c4ccc(NCC5CCOCC5)c([N+](=O)[O-])c4)c(Oc4cnc5[nH]ccc5c4)c3)CC2)=C(c2ccc(Cl)cc2)C1 + CC(Nc1ncnc2nc[nH]c12)c1cc2cccc(Cl)c2c(=O)n1-c1ccccc1"
  measuredEndpoint: "viability, T/C"
  measured: 49.1
- compound: "CCCS(=O)(=O)Nc1ccc(F)c(C(=O)c2c[nH]c3ncc(-c4ccc(Cl)cc4)cc23)c1F + COc1c(OCCCN2CCOCC2)ccc2c3n(c(=NC(=O)c4cnc(N)nc4)nc12)CCN3"
  measuredEndpoint: "viability, T/C"
  measured: 15.7
- compound: "CC(Cn1ccc(-c2ccc(C#N)c(Cl)c2)n1)NC(=O)c1cc(C(C)O)[nH]n1 (stereo unspecified) + Cc1nc(NC(=O)N2CCCC2C(N)=O)sc1-c1ccnc(C(C)(C)C(F)(F)F)c1"
  measuredEndpoint: "viability, T/C"
  measured: 103
- compound: "Cn1nccc1Nc1nccc(-c2ccn(C(CO)c3ccc(Cl)c(F)c3)c(=O)c2)n1 (stereo unspecified) + COc1c(OCCCN2CCOCC2)ccc2c3n(c(=NC(=O)c4cnc(N)nc4)nc12)CCN3"
  measuredEndpoint: "viability, T/C"
  measured: 32
- compound: "C=CC(=O)N1CCN(c2nc(=O)n(-c3c(C)ccnc3C(C)C)c3nc(-c4c(O)cccc4F)c(F)cc23)C(C)C1 (stereo unspecified) + COc1c(OCCCN2CCOCC2)ccc2c3n(c(=NC(=O)c4cnc(N)nc4)nc12)CCN3"
  measuredEndpoint: "viability, T/C"
  measured: 42.9
- compound: "Cn1ncc(Cl)c1-c1cc(C(=O)NC(CN)Cc2cccc(F)c2)sc1Cl (stereo unspecified) + Cc1nc(NC(=O)N2CCCC2C(N)=O)sc1-c1ccnc(C(C)(C)C(F)(F)F)c1"
  measuredEndpoint: "viability, T/C"
  measured: 34.8
- compound: "CC1(C)CCC(Nc2ncc(C(F)(F)F)c(-c3c[nH]c4c(P(C)(C)=O)c(C#N)ccc34)n2)CN1 (stereo unspecified) + CC(Nc1ccc2c(c1)OCCn1cc(N3C(=O)OCC3C(F)F)nc1-2)C(N)=O"
  measuredEndpoint: "viability, T/C"
  measured: 14.8
- compound: "CC(C)NCC(C(=O)N1CCN(c2ncnc3c2C(C)CC3O)CC1)c1ccc(Cl)cc1 (stereo unspecified) + COc1c(OCCCN2CCOCC2)ccc2c3n(c(=NC(=O)c4cnc(N)nc4)nc12)CCN3"
  measuredEndpoint: "viability, T/C"
  measured: 18.6
- compound: "Cn1ncc(Cl)c1-c1cc(C(=O)NC(CN)Cc2cccc(F)c2)sc1Cl (stereo unspecified) + CC(Nc1ncnc2nc[nH]c12)c1cc2cccc(Cl)c2c(=O)n1-c1ccccc1"
  measuredEndpoint: "viability, T/C"
  measured: 34.8
- compound: "C[C@@H](NC(=O)c1ncnc(N)c1Cl)c1ncc(C(=O)Nc2cc(C(F)(F)F)c(Cl)cn2)s1 + Cc1nc(NC(=O)N2CCCC2C(N)=O)sc1-c1ccnc(C(C)(C)C(F)(F)F)c1"
  measuredEndpoint: "viability, T/C"
  measured: 113
